- tested system: T1, human C1s (human, UniProt P09871 16-688)
- T1 construct: also called hC1s; serum-derived human C1s (CompTech)
- T1 sequence: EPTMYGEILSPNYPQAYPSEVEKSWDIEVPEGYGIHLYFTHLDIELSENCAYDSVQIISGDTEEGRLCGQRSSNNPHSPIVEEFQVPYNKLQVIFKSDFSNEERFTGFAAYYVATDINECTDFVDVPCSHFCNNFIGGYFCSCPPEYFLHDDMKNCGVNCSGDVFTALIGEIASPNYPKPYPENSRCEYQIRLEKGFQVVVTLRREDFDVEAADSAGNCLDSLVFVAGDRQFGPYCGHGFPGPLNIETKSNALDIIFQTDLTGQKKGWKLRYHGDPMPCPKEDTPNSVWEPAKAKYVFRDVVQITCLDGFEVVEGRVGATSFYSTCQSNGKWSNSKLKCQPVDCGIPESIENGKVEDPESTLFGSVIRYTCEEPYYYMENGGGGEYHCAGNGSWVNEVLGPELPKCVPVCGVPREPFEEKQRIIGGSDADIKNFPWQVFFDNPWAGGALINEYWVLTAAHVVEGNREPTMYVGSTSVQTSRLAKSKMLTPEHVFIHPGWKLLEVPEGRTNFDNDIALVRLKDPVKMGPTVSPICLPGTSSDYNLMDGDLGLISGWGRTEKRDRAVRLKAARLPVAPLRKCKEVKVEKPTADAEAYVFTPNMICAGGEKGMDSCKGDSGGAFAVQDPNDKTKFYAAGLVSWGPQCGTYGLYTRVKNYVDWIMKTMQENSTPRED
- method description: SPR, Ab captured; pH 5.8, 1.2 mM Ca
result type: Kd (nM)
Give your result in nM as a bare value.

binder: C1_IPN92H0026-SG4GK/IPN93L0023-SK1 (antibody, human IgG4 S228P, kappa, name in Kabat numbering, V domains shown, also called IPN92H0026/IPN93L0023) VH: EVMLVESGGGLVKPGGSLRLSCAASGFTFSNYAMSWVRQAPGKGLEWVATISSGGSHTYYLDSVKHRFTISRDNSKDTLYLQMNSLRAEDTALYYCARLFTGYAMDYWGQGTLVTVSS VL: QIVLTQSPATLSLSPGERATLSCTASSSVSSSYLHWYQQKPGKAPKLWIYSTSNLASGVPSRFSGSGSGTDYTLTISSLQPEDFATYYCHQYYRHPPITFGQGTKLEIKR
unit symbol: nM
Kd: 1.53

binder: C1_IPN92H0038-SG4GK/IPN93L0021-SK1 (antibody, human IgG4 S228P, kappa, name in Kabat numbering, V domains shown, also called IPN92H0038/IPN93L0021) VH: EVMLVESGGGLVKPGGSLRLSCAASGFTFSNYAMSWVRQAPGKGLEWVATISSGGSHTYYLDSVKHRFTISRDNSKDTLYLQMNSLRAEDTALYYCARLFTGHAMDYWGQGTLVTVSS VL: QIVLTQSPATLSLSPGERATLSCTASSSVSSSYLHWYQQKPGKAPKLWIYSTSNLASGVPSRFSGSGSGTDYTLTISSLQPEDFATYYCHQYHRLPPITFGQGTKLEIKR
unit symbol: nM
Kd: 3.53

Turning now to a further binder:
Task: # input binder: C1_IPN92H0038-SG4GK/IPN009VK3-SK1 (antibody, human IgG4 S228P, kappa, name in Kabat numbering, V domains shown, also called IPN92H0038/IPN009VK3) VH: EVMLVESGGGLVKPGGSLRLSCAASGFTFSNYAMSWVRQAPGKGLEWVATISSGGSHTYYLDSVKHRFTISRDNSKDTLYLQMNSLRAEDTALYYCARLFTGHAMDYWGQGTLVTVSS VL: QIVLTQSPATLSLSPGERATLSCTASSSVSSSYLHWYQQKPGKAPKLWIYSTSNLASGVPSRFSGSGSGTDYTLTISSLQPEDFATYYCHQYYRLPPITFGQGTKLEIKR ; wanted: its Kd
Result: 0.668
